Sourced from PubChem BioAssay

Catalogue of composite z-score values
biological target: E3 ubiquitin-protein ligase XIAP (Homo sapiens); assay: XIAP binders, primary screen, biophysical, small-molecule microarray, fluorescence 635 nm (AID 1181); conditions: small-molecule microarray binding, higher = more signal;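 also: score merges 667 nm emission and signal to noise over triplicate slides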
Form rule: numeric answer, no unit written next to it.

# Compound, composite z-score
measured = [
    ("CCN1C(=O)[C@H]2[C@H]3[C@H](O)[C@H](O)CC(=NOCC(C)C)[C@@H]3CC[C@H]2C1=O", -0.0696),
]

Qu. Would you mind telling me what composite z-score value was observed for CO[C@@H]1COC(=O)CC=C[C@H](C)[C@H](OC)COC(=O)[C@H](C)NC(=O)CC=C[C@H]1C ?
Ans. 0.0264

Qu. Would you mind telling me what composite z-score value was observed for CCOC(=O)[C@H](CC(C)C)NC(=O)CCC1CC(OC(=O)NCCc2ccc(F)cc2)CC2(CCCC(COC(=O)NCCc3ccc(Cl)cc3)O2)O1 (some centres undefined) ?
Ans. -0.247

----------
experiment: A549 cell viability effects, profiling panel, calcein-AM fluorescence, 48 h, basal (AID 1162); conditions: higher = more signal; also: test concentration not given here
Measurement type: z-score
Form rule: numeric answer, no unit written next to it.

# Compound, z-score
measured = [
    ("CO[C@H]1COC(=O)CC=C[C@@H](C)[C@H](OC)COC(=O)CCC[C@@H]1C", -0.71),
]

Qu. Would you mind telling me what z-score value was observed for CCOC(=O)[C@H](CC(C)C)NC(=O)CCC1CC(OC(=O)NCc2ccc3c(c2)OCO3)CC2(CCCC(COC(=O)NCCCN3CCCC3=O)O2)O1 (stereo not given in full) ?
Ans. 0.526

Qu. Would you mind telling me what z-score value was observed for CC(=O)Nc1ccc([C@@H]2N[C@H](C(=O)O)CC[C@H]2C)cc1 ?
Ans. 0.858

Qu. Would you mind telling me what z-score value was observed for CC(=O)OC[C@H]1O[C@H](C#Cc2ccccc2)C=C[C@@H]1OC(C)=O ?
Ans. -0.188

Qu. Would you mind telling me what z-score value was observed for COC(=O)[C@@H]1CC[C@H](C)[C@@H](c2ccc(C)cc2)N1C(=O)c1ccc(C=NO[C@H](C)c2cn([C@H](CO)Cc3ccccc3)nn2)cc1 ?
Ans. 0.354

----------
assay: small-molecule binders of probe aNOTCH2, primary screen, biochemical, small-molecule microarray, 635/667 nm fluorescence (AID 1121); details: higher = more signal;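 also: score merges feature fluorescence read at 667 nm with its signal to noise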
Catalogue of composite z-score values
Form rule: numeric answer, no unit written next to it.

Recorded composite z-score, per entry:
# Smiles code, Measurement type, Result
measured = [
    ("CC(CCN1CCCCc2nc(C)c(C)cc21)=NO[C@@H](C)c1cn([C@H](CO)Cc2ccccc2)nn1", "composite z-score", -0.14),
    ("COC(=O)CC=C[C@@H](C)[C@@H](C=NOCC[C@@H]1C=C[C@H](OC(C)=O)[C@@H](COC(C)=O)O1)OC", "composite z-score", -0.115),
]

In the following, a different compound is considered.
Qu. Would you mind telling me what composite z-score value was observed for COC(=O)CC=C[C@@H](C)[C@@H](C=NOC[C@@H](O)[C@H]1O[C@@H]2OC(C)(C)O[C@@H]2[C@H]1O)NS(=O)(=O)c1ccc(C)cc1 ?
Ans. -0.289

----------
target: Focal adhesion kinase 1 (Homo sapiens) (UniProt Q05397); test: small-molecule microarray binders of FAK, primary screen, biochemical, 635/667 nm fluorescence, BSA, DTT (AID 1130); details: PTK2 binding, 635 nm fluorescence, higher = more signal;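 also: composite of spot emission at 667 nm and signal to noise over triplicate slides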
Sequence (Q05397 whole entry, looked up): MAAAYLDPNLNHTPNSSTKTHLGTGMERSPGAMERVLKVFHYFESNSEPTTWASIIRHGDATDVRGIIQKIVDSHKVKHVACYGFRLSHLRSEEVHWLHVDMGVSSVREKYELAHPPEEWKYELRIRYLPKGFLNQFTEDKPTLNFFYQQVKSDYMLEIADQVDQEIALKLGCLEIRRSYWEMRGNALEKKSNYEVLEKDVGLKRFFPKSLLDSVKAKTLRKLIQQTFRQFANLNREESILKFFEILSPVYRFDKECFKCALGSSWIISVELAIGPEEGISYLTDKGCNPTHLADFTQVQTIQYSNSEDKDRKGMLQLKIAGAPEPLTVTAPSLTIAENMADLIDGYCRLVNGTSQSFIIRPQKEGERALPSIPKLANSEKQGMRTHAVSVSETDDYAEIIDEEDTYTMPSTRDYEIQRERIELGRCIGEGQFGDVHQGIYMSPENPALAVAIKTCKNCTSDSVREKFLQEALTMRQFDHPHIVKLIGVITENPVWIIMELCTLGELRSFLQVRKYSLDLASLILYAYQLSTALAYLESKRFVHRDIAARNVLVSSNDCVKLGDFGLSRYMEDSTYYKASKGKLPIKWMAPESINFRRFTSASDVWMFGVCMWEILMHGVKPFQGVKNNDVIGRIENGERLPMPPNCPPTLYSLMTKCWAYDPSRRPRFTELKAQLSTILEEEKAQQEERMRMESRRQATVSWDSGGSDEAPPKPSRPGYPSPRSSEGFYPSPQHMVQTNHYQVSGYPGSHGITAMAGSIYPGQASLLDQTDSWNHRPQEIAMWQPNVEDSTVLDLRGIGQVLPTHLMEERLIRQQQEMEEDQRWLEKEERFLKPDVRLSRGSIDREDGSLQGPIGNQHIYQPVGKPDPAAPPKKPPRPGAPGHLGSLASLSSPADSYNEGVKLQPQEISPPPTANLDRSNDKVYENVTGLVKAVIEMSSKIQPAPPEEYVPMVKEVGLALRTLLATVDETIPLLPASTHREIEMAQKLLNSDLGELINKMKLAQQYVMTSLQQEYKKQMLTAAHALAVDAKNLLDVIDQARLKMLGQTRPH
Label 1 for high-side composite z-score (at or above -0.007) and -1 for low-side composite z-score (below it).

# count of solved cases: 2
# Molecule, Answer label
rows = [
    ("CC(C)(C)N1C(=O)[C@H]2[C@H]3[C@H](O)[C@H](O)CC(=O)[C@@H]3CC[C@H]2C1=O", 1),
    ("COc1cc(O)c(C(=O)C=Cc2ccc3c(c2)OCO3)c(OC)c1", 1),
]

Qu. Please check the record CCOC(=O)[C@H](CC(C)C)NC(=O)CCC1CC(OC(=O)NCc2cccc3ccccc23)CC2(CCCC(COC(=O)NCCCN3CCCC3=O)O2)O1 (stereo partly specified) and state if its composite z-score is at or above -0.007.
Ans. 1

Qu. Please check the record O=C1[C@H]2[C@H]3[C@H](O)[C@H](O)CC(=NOC[C@@H](O)COCc4ccco4)[C@H]3CC[C@H]2C(=O)N1Cc1ccccc1 and state if its composite z-score is at or above -0.007.
Ans. -1

Qu. Please check the record CC(CCN1CCc2nc(-c3ccccc3)c(-c3ccccc3)cc2C1)=NOC[C@@H](O)[C@H]1O[C@@H]2OC(C)(C)O[C@@H]2[C@H]1O and state if its composite z-score is at or above -0.007.
Ans. 1

Qu. Please check the record CC(=O)OC[C@H]1O[C@H](CCON=C2[C@H]3CCn4c(=O)n(-c5ccccc5)c(=O)n4[C@H]3[C@H](O)[C@@H]3O[C@H]23)C=C[C@@H]1OC(C)=O and state if its composite z-score is at or above -0.007.
Ans. -1

Qu. Please check the record CC(C)=CCCC(C)=CCON=C1C[C@@H](O)[C@@H](O)[C@@H]2[C@@H]3C(=O)N(c4cccc(Oc5ccccc5)c4)C(=O)[C@@H]3CC[C@@H]12 and state if its composite z-score is at or above -0.007.
Ans. 1

Qu. Please check the record O=C1[C@H]2[C@H]3[C@H](O)[C@H](O)CC(=NOC[C@@H](O)COCc4ccco4)[C@H]3CC[C@H]2C(=O)N1C[C@@H]1CCCO1 and state if its composite z-score is at or above -0.007.
Ans. -1

Qu. Please check the record CC(CCN1CCCCc2nc(C)c(C)cc21)=NO[C@@H](C)c1cn([C@H](CO)Cc2ccccc2)nn1 and state if its composite z-score is at or above -0.007.
Ans. 1

Qu. Please check the record C#CCCCON=C1C[C@@H](O)[C@@H](O)[C@@H]2[C@@H]3C(=O)N(Cc4ccccc4)C(=O)[C@@H]3CC[C@@H]12 and state if its composite z-score is at or above -0.007.
Ans. 1

Qu. Please check the record Cc1ccc(S(=O)(=O)N[C@@H]2COC(=O)[C@@H](C)COC(=O)CC=C[C@H]2C)cc1 and state if its composite z-score is at or above -0.007.
Ans. -1

----------
assay: modulators of HCV replicon luciferase signal, primary screen, HCV replication inhibitor project, Huh7 cells, luciferase reporter (AID 1109); conditions: 48 h, higher = more signal;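 also: huh7 hepatoma cells harbouring a luciferase neomycin HCV replicon reporter; luciferase luminescence as measure of HCV replicon replication; test concentration not given here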
Label label 1 for high-side z-score (at or above -1) and label 0 for low-side z-score (below it).

# Compound, Answer label
records = [
    ("COC(=O)CC=C[C@@H](C)[C@@H](C=NOC[C@@H](O)[C@H]1O[C@@H]2OC(C)(C)O[C@@H]2[C@H]1O)NS(=O)(=O)c1ccc(C)cc1", "label 1"),
]

Next, consider the following compound.
Qu. Please check the record C#CCCCON=C1C[C@@H](O)[C@@H](O)[C@@H]2[C@@H]3C(=O)N(Cc4ccccc4)C(=O)[C@@H]3CC[C@@H]12 and state if its z-score is at or above -1.
Ans. label 1

----------
biological target: Calmodulin-1 (Homo sapiens); test: CALM1 binders on microarrays, EGTA buffer, profiling panel, biochemical, small-molecule microarray, Cy5-labelled CALM1 (AID 1111); conditions: Cy5-CALM1 binding fluorescence, higher = more signal;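 also: labelled calmodulin applied in Tris saline Tween buffer holding calcium plus EGTA and DTT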
Catalogue of composite z-score values
Form rule: numeric answer, no unit written next to it.

# Compound, composite z-score
rows = [
    ("C#CCCCON=C1C[C@@H](O)[C@@H](O)[C@@H]2[C@@H]3C(=O)N(c4ccc(F)cc4F)C(=O)[C@@H]3CC[C@@H]12", -0.212),
]

Qu. Would you mind telling me what composite z-score value was observed for C#CCCCON=C1C[C@@H](O)[C@@H](O)[C@@H]2[C@@H]3C(=O)N(c4cccc(Oc5ccccc5)c4)C(=O)[C@@H]3CC[C@H]12 ?
Ans. -0.423

Qu. Would you mind telling me what composite z-score value was observed for Cc1cc2c(nc1C)CCCCN2CC(C)ON=C1[C@H]2CCn3c(=O)n(-c4ccccc4)c(=O)n3[C@H]2[C@H](O)[C@@H]2O[C@H]12 (stereo partly drawn) ?
Ans. -0.895

Qu. Would you mind telling me what composite z-score value was observed for O=C1CCCC=C1C(CCc1ccccc1)OC(=O)c1ccc(Br)cc1 (stereo not drawn) ?
Ans. -1.11

Qu. Would you mind telling me what composite z-score value was observed for CC(=O)OC[C@H]1O[C@H](C#Cc2ccccc2)C=C[C@@H]1OC(C)=O ?
Ans. -0.376

Qu. Would you mind telling me what composite z-score value was observed for CC(C)CON=C1C[C@@H](O)[C@@H](O)[C@@H]2[C@@H]3C(=O)N(C4CCCCC4)C(=O)[C@@H]3CC[C@H]12 ?
Ans. 1.27

Qu. Would you mind telling me what composite z-score value was observed for CC(C)CON=C1[C@H]2CCn3c(=O)n(Cc4cc5c(cc4Cl)OCO5)c(=O)n3[C@H]2[C@H](O)[C@@H]2O[C@H]12 ?
Ans. -0.0844

Qu. Would you mind telling me what composite z-score value was observed for CC=CC1=C(CO)C(=O)[C@@H]2O[C@@H]2C1=O ?
Ans. -1.58
